B1: PBXIP1 (parent)
chain: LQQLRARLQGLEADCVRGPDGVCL

variants of: B1; assay: protein stability index of a GFP-peptide fusion (GPS, HEK-293T) (PSI 1-6); higher = more stable; details: c terminus: a fixed tail appended;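 also: lentivirally expressed fusions sorted by FACS into six bins by GFP to DsRed ratio, PSI derived from sequencing read proportions per bin multiplied by bin number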
Metric Name: protein stability index
Please give the numeric answer without any surrounding text.

Solved entries:
>>> val("L1C")
2.92
>>> val("V22I")
1.96

Query string: Look up protein stability index for this variant: R7N
Result string: 2.93

Query string: Requested field: protein stability index. Item: L24H
Result string: 2.97

Query string: Looking for the measured protein stability index of R17H , can you help?
Result string: 2.93

Query string: Given C15N , state its recorded protein stability index.
Result string: 1.95

Query string: Quick check: protein stability index of E12T ?
Result string: 2.02

Query string: # query: protein stability index of entry D20Q
Result string: 3.03

Query string: Using the record for V16Q , report its protein stability index.
Result string: 2.95
